organism: Rattus norvegicus; settings: Cerebral cortex
Description: Displacement of [3H]BTX-B from neuronal voltage-gated sodium channel in rat cerebral cortex synaptoneurosomes after 60 mins by scintillation counting
# reported logIC50; entries follow
Just the number.

Use these answered entries as a reference point.
* CCCCCCCCCC1(c2ccccc2)NC(=O)NC1=O (centres undefined) | 0.7
* CCCCCC(O)(C(=O)NCCC(c1ccccc1)c1ccccc1)c1ccccc1 (centres undefined) | 0.4
* CCCCCC1(c2ccccc2)NC(=O)NC1=O (centres undefined) | 1.59

The record that follows has no logIC50 shown yet.
logIC50 for "COc1cc2nc(N3CCN(C(=O)c4ccco4)CC3)nc(N)c2cc1OC" is 1.33
